Entry source: patent US20050043381A1

tested on: CA-46 (lymphoma) cells; experiment: Whole cell checkpoint abrogation assay (CHK1 Mitotic Index ELISA); type: cell-based; conditions: @ 0.5 μM
Mark NO for percent abrogation of the checkpoint values under 7 % @ 0.5 μM, and YES for everything at or above.

compound: Oc1ccc(-c2ccc(-c3cc(Nc4ccccn4)[nH]n3)cc2)c(O)c1
system: CA-46 (lymphoma) cells
category.label: YES
--
compound: OCc1ccc(Nc2cc(-c3ccc(-c4ccc(O)cc4O)cc3)[nH]n2)cn1
system: CA-46 (lymphoma) cells
category.label: NO
--
compound: Oc1ccc(-c2ccc(-c3cc(Nc4ccncc4)[nH]n3)cc2)c(O)c1
system: CA-46 (lymphoma) cells
category.label: YES
--
compound: CNC(=S)c1ccc(Nc2cc(-c3ccc(-c4ccc(O)cc4O)cc3)n[nH]2)cn1
system: CA-46 (lymphoma) cells
category.label: YES

percent abrogation of the checkpoint >= 7 % @ 0.5 μM for OCc1cc(Nc2cc(-c3ccc(-c4ccc(O)cc4O)cc3)[nH]n2)ccn1 [Example 13, acetate] ?
NO

Decide: is the reported value of percent abrogation of the checkpoint for `Oc1ccc(-c2ccc(-c3cc(Nc4cncs4)[nH]n3)cc2)c(O)c1` equal to or greater than 7 % @ 0.5 μM?
YES

---

Protein target, amino acids: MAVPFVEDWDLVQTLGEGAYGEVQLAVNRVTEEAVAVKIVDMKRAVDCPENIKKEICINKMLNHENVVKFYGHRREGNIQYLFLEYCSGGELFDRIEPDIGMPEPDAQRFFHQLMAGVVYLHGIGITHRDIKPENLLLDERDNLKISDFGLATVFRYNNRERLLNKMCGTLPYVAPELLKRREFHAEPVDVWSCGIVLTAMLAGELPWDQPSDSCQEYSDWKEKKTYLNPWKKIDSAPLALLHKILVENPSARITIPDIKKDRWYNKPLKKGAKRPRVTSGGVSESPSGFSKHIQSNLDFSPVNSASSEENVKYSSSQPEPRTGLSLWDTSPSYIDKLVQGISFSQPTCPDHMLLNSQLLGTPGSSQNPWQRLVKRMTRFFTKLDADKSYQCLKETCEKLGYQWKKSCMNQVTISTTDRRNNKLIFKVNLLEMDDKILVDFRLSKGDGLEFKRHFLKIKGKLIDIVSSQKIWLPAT
pKi: −log10 of the molar value.
measurement.label: pKi

The cases that follow already have their pKi on record.
compound: CN(C)Cc1ccc(Nc2cc(-c3ccc(-c4ccc(O)cc4O)cc3)[nH]n2)cn1 [Example 15]
measurement.label: pKi
value.observed: 8.00 to 9.00
//
compound: Oc1cc(O)c(-c2ccc(-c3cc(Nc4ccc(CNC5CC5)cc4)n[nH]3)cc2)c(F)c1 [Example 9]
measurement.label: pKi
value.observed: 8.00 to 9.00
//
compound: N#Cc1ccc(Nc2cc(-c3ccc(-c4ccc(O)cc4O)cc3)n[nH]2)cc1 [Example 2]
measurement.label: pKi
value.observed: 8.00 to 9.00
//
compound: Oc1ccc(-c2ccc(-c3cc(Nc4ccc(CNC5CCCC5)nc4)n[nH]3)cc2)c(O)c1 [Example 14]
measurement.label: pKi
value.observed: 8.00 to 9.00

Supply recorded pKi for Oc1ccc(-c2ccc(-c3cc(Nc4ccncc4)[nH]n3)cc2)c(O)c1 [Example 19] here.
8.00 to 9.00
